# subject.of.test: human sodium channel Nav 1.8 (Homo sapiens (Human))
# Sequence (Q9Y5Y9 whole entry): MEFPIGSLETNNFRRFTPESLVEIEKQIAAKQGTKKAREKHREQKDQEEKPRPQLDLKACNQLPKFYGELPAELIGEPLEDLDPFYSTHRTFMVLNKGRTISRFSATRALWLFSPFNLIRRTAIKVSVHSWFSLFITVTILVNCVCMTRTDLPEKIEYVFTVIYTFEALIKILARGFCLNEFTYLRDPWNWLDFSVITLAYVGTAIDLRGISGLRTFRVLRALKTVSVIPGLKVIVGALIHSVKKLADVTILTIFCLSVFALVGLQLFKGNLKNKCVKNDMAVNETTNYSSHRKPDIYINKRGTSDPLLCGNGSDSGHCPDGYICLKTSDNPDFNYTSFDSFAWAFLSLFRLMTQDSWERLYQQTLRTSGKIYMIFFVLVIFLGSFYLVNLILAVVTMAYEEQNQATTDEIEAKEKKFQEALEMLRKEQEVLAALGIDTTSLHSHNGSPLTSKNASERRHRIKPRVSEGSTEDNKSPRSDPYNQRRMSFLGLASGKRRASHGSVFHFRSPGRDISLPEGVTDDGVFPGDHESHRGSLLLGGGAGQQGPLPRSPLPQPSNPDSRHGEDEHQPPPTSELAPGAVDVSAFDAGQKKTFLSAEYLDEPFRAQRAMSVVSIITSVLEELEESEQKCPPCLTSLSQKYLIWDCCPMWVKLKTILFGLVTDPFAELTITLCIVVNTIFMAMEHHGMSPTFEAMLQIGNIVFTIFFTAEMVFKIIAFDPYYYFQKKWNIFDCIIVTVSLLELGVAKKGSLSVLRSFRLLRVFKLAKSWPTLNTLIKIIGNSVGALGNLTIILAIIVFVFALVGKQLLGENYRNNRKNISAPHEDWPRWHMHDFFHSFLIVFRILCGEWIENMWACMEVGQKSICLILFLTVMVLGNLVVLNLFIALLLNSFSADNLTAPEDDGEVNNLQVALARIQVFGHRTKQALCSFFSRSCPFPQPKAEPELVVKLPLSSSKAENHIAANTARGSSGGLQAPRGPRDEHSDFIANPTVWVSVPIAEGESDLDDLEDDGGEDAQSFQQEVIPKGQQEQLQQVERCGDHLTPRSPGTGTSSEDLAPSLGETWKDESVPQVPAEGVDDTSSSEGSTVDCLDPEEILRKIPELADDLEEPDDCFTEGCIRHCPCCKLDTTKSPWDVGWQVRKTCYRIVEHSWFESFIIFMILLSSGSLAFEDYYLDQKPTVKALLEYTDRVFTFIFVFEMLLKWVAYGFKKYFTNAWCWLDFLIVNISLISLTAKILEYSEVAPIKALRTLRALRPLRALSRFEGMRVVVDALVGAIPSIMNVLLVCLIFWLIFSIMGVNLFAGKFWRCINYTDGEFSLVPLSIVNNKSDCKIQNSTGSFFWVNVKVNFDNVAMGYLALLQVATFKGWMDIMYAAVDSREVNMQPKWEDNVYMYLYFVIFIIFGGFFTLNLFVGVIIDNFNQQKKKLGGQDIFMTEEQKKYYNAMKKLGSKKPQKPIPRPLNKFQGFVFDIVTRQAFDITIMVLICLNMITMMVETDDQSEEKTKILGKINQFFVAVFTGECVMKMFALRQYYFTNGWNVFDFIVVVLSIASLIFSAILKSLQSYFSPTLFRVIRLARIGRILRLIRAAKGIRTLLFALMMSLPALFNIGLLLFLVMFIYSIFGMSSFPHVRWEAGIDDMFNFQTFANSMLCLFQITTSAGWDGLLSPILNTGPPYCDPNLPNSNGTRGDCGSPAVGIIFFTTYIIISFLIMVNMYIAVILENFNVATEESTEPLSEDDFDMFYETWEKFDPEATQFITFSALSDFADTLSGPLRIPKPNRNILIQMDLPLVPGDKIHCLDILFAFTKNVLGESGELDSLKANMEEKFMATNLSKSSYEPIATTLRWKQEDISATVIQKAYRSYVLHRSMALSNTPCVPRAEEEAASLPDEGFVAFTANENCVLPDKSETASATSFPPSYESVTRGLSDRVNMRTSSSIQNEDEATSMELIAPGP
# method: Automated whole-cell voltage-clamp (ScreenPatch 384P), Nav 1.8 sodium current, Protocol 2
# Assay type: cell-based
# condition.description: read-out: Nav1.8 IC50
measured.parameter: IC50 (nM)

> print(dat)
                               line.notation  readout.relation  observed.result
 1  CCOc1ccc(-c2nc(C(=O)N/N=C/c3cc(OC)cc(OC)c3)cnc2Cl)cc1                 =              189
 2  COc1ccc(-c2cncc(C(=O)N(C)/N=C/c3cc(OC)cc(OC)c3)n2)cc1                 >             1000
 3  CCOc1ccc(-c2cncc(C(=O)N/N=C/c3ccccc3OC)n2)cc1                 =             24.9
 4  COc1cc(/C=N/NC(=O)c2cncc(-c3ccccc3OC3CCCC3)n2)cc(OC)c1                 >             1000
 5  CC1=C(/C=N/NC(=O)c2cncc(-c3ccc(OC(C)C)cc3)n2)CCCC1                 =              166
 6  COc1ccc(-c2cncc(C(=O)N/N=C/c3cc[nH]c(=O)c3)n2)cc1                 >             1000
 7  COc1cc(/C=N/NC(=O)c2cncc(-c3ccccc3F)n2)cc(OC)c1                 >             1000
 8  CCCOc1cc(/C=N/NC(=O)c2cncc(-c3ccc(OCC)cc3)n2)cc(OC)c1                 =             93.3
 9  CCOc1ccc(-c2cnc(C)c(C(=O)N/N=C/c3cc(OC)cc(OC)c3)n2)cc1                 =              650
10  COc1cc(/C=N/NC(=O)c2cncc(-c3ccc(OC(F)(F)F)cc3)n2)cc(OC)c1                 =              132
11  COc1cc(/C=N/NC(=O)c2cncc(-c3ccc(C(=O)NS(C)(=O)=O)cc3)n2)cc(OC)c1                 >             1000
12   CCc1cnc(C(=O)N/N=C/c2cc(OC)cc(OC)c2)cn1                 >             1000
13  CCOc1ccc(-c2cncc(C(=O)N/N=C/c3cc(OC)cc(OC)c3OC)n2)cc1                 =               73
14  COc1ccc(-c2cncc(C(=O)N/N=C/c3c(OC)cccc3OC)n2)cc1                 >             1000
15  COc1ccc(-c2cncc(C(=O)N/N=C/c3cccc(C(C)(C)C)c3)n2)cc1                 =              492
16  CCOc1ccc(-c2cncc(C(=O)N/N=C/c3cccc(OC)c3)n2)c(OC(C)C)c1                 >             1000
17  CCOc1ccc(-c2cncc(C(=O)N/N=C/c3cccc(OC)c3)n2)cc1                 =             27.2
